Recorded Average EC50 in cynomolgus HT1080 (IL-8 induction) for the following binders
Biological target: T1, cynomolgus monkey GITR expressed on HT1080 cells (cynomolgus monkey)
T1 chain: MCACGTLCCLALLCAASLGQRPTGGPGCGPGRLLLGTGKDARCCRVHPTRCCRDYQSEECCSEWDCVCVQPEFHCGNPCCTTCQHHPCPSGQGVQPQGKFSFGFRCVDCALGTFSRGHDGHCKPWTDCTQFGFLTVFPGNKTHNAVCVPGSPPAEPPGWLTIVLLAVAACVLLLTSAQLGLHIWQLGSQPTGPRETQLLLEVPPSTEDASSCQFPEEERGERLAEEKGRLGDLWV
Test: cell-based or functional assay
Lab book: enter the figure in nM, no units written.

As a guide, the following entries are already answered.
ABP39 (antibody, human IgG1, kappa, N297A, V domains shown, IgG1 N297A, bivalent; also called non-TM ABP corresponding to ABP6) VH: QVQLQESGPGLVKPSETLSLTCAVSGYSISSGAGWGWIRQPPGKGLEWIGLIVHSGSTYYNPSLKSRVTISVDTSKNQFSLKLSSVTAADTAVYYCVLESVRGYGDYGGHHAFDIWGQGTMVTVSS VL: DIQMTQSPSSLSASVGDRVTITCRASQSISSYLNWYQQKPGKAPKLLIYAADSLQSGVPSRFSGSGSGTDFTLTISSLQPEDFATYYCQQEYNTPPTFGGGTKVEIKR	2.3
ABP40 (antibody, human IgG1, kappa, N297A, V domains shown, IgG1 N297A, bivalent; also called non-TM ABP corresponding to ABP7) VH: QVQLQESGPGLVKPSETLSLTCAVSGYSISSEYMWGWIRQPPGKGLEWIGLIYHSGKTYYNPSLKSRVTISVDTSKNQFSLKLSSVTAADTAVYYCAREADRGYGDYGGHHAFDIWGQGTMVTVSS VL: DIQMTQSPSSLSASVGDRVTITCRASQSINSYLNWYQQKPGKAPKLLIYAASSLDSGVPSRFSGSGSGTDFTLTISSLQPEDFATYYCQQEYNTPPTFGGGTKVEIKR	1.1
ABP38 (antibody, human IgG1, kappa, N297A, V domains shown, IgG1 N297A, bivalent; also called non-TM ABP corresponding to ABP4/5) VH: QVQLQESGPGLVKPSETLSLTCAVSGYSISSGAGWGWIRQPPGKGPEWIGLIVHSGSTYYNPSLKSRVTISVDTSKNQFSLKLSSVTAADTAVYYCVLESVRGYGDYGGHHAFDIWGQGTMVTVSS VL: DIQMTQSPSSLSASVGDRVTITCRASKSIDSYLNWYQQKPGKAPKLLIYAASSLQSGVPSRFSGSGSGTDFTLTISSLQPEDFATYYCQQEYNTPPTFGGGTKVEIKR	14.3

Query: Requested field: Average EC50 in cynomolgus HT1080 (IL-8 induction). Item: ABP41 (antibody, human IgG1, kappa, N297A, V domains shown, IgG1 N297A, bivalent; also called non-TM ABP corresponding to ABP8) VH: QVQLQESGPGLVKPSETLSLTCAVSGYSISSEYMWGWIRQPPGKGLEWIGLIYHSGKTYYNPSLKSRVTISVDTSKNQFSLKLSSVTAADTAVYYCAREADRGYGDYGGHHAFDIWGQGTMVTVSS VL: DIQMTQSPSSLSASVGDRVTITCGASQSISTYLNWYQQKPGKAPKLLIYSASSLESGVPSRFSGSGSGTDFTLTISSLQPEDFATYYCQQEYNTPPSFGGGTKVEIKR
Response: 2

Query: Requested field: Average EC50 in cynomolgus HT1080 (IL-8 induction). Item: trimeric human GITR ligand (ligand, UniProt Q9UNG2 50-177, looked up) QLETAKEPCMAKFGPLPSKWQMASSEPPCVNKVSDWKLEILQNGLYLIYGQVAPNANYNDVAPFEVRLYKNKDMIQTLTNKSKIQNVGGTYELHVGDTIDLIFNSEHQVLKNNTYWGIILLANPQFIS
Response: 0.17

Query: Requested field: Average EC50 in cynomolgus HT1080 (IL-8 induction). Item: ABP37 (antibody, human IgG1, kappa, N297A, V domains shown, IgG1 N297A, bivalent; also called non-TM ABP corresponding to ABP3) VH: QVQLQESGPGLVKPSETLSLTCAVSGYSISSGAGWGWIRQPPGKGLEWIGLIVHSGSTYYNPSLKSRVTISVDTSKNQFSLKLSSVTAADTAVYYCVLESVRGYGDYGGHHAFDIWGQGTMVTVSS VL: DIQMTQSPSSLSASVGDRVTITCRASQSISSYLNWYQQKPGKAPKLLIYAASSLKYGVPSRFSGSGSGTDFTLTISSLQPEDFATYYCQQEYNTPPTFGGGTKVEIKR
Response: 1.7
